Molecular target: Prostaglandin G/H synthase 1 (Homo sapiens, UniProt P23219)
Sequence (P23219 whole entry): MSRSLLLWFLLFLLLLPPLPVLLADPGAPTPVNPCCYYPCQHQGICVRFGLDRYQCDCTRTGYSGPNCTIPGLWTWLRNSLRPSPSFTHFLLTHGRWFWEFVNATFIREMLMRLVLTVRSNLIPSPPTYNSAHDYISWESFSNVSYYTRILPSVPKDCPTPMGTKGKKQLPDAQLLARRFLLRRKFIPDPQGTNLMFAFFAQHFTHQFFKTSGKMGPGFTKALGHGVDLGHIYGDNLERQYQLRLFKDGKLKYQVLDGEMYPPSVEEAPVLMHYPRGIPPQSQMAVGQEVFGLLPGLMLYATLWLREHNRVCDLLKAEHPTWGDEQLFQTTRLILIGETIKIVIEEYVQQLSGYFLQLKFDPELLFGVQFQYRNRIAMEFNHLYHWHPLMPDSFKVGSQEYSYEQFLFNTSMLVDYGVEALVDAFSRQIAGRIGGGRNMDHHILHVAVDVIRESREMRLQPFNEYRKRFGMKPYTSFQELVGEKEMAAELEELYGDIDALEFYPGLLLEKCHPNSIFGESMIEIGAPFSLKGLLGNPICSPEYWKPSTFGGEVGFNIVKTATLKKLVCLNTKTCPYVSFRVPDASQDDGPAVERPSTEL
Assay: Inhibition of COX-1 (unknown origin) using arachidonic acid as substrate at 100 uM measured after 10 mins by fluorometric based multimode microplate reader relative to control
Observable: inhibition (%)

{"columns": ["Compound", "Observable", "Test Result"],
 "data": [
  ["COc1ccc(/C=N/Nc2nc(-c3ccc(S(C)(=O)=O)cc3)cs2)cc1O", "inhibition", 41.2],
  ["CC(C)Cc1ccc(C(C)C(=O)O)cc1 (stereo not drawn)", "inhibition", 89.4]
]}

P = COc1cccc(/C=N/Nc2nc(-c3ccc(S(C)(=O)=O)cc3)cs2)c1OC
Q = COc1ccc(/C=N/Nc2nc(-c3ccc(S(C)(=O)=O)cc3)cs2)c(OC)c1
Exercise: compare P and Q ; which one has the greater inhibition? Answer by stating the label of the chosen item.
P

From: ChEMBL document CHEMBL4732070
